Biological target: T1, huB7-H3 (Homo sapiens, UniProt Q5ZPR3)
T1 construct: His tag (6xHis) (C)
T1 sequence (Q5ZPR3 with tags, fused parts or gaps): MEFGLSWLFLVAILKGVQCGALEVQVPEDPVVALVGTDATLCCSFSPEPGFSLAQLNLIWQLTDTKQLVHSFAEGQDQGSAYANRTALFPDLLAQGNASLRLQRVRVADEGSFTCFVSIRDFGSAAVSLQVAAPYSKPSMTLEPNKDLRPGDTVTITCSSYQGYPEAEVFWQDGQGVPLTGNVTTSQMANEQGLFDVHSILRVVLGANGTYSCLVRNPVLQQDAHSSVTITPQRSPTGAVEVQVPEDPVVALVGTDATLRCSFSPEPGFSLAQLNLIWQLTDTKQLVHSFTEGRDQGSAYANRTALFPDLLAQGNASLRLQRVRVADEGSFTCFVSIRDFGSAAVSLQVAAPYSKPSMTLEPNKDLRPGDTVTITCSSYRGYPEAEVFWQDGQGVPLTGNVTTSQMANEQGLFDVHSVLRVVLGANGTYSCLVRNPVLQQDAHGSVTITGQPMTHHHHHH
Test: Biacore T200 SPR binding kinetics, mAb capture
Conditions: Table 3
huB7-H3 ka(1/Ms) overview
measured_property: huB7-H3 ka(1/Ms) (M⁻¹ s⁻¹)

- Ab6: mouse hybridoma anti-B7-H3 monoclonal antibody, mouse IgG1/k (antibody, V domains shown) VH: QVQLQQSGAELMKPGASVKISCKATGYTFSRYWIEWVKQRPGHGLEWIGEILPGSGSTNYNEKFKGKATFTADTSSNTAYMQVSSLTSEDSAVHYCARRGYGYVPYALDYWGQGTSVTVSS VL: EIQMTQTTSSLSASLGDRVTISCRASQDISNSLNWYQQKPDGTVNLLIYYTSRLYSGVPSRFSGSGSGTDYSLTISNLEQEDIATYFCQQGNTLPYTFGGGTKLEIK: 12000
- Ab10: mouse hybridoma anti-B7-H3 monoclonal antibody, mouse IgG2b/k (antibody, V domains shown) VH: DVQLQESGPGLVKPSQSLSLTCTVTGYSITSDYAWNWIRQFPGNRLEWMGHINYSGITNYNPSLKSRISITRDTSKNQFFLQLYSVTTEDTATYFCARRSLFYYYGSSLYAMDYWGQGTSVTVSS VL: DVVMTQSPFSLPVSLGDQASISCRSSQSLVHSNGNTYLHWYLQKPGQSPKLLIYKVSNRFSGVPDRFSGSGSGTDFTLKISRVEAEDLGVYFCSQSTHVPWTFGGGTKLEIK: 41000
- Ab12: mouse hybridoma anti-B7-H3 monoclonal antibody, mouse IgG1/k (antibody, V domains shown) VH: EVQLVESGGGLVKPGGSLKLSCAASGFTFSSYAMSWVRQTPEKRLEWVATISSGTNYTYYPDSVKGRFTISRDNAKNTLYLQMTSLRSEDTAMYYCARQGRYSWIAYWGQGTLVTVSA VL: DIVLTQSPASLAVSLGQRATISCRASKSVSTSDYSYMHWNQQKPGQPPKLLIYLASNLESGVPARFSGSGSGTDFTLNIHPVEEEDAATYYCQHSRELLTFGAGTKLELK: 38000
- Ab4: mouse hybridoma anti-B7-H3 monoclonal antibody, mouse IgG2b/k (antibody, V domains shown) VH: QVQLQQPGAELVKPGASVKLSCKASGYSFTSYWMHWVKQRPGQGLEWIGMIHPNSGSNNYNEKFKSKATLTVDKSSNTAYMQLSSLTSEDSAVYYCARRLGLHFDYWGQGTTLTVSS VL: DIVMTQSQKFMSTPVGDRVSITCKASQNVGTAVAWYQQKPGQSPKLLIYSASNRYTGVPDRFTGSGSGTDFTLTISNMQSEDLADYFCQQYSSYPYTFGGGTKLEIK: 690000
- Ab11: mouse hybridoma anti-B7-H3 monoclonal antibody, mouse IgG1/k (antibody, V domains shown) VH: EVKLVESGGGLVQPGGSLRLSCATSGFTFTNYYMSWVRQPPGKALEWLGFIRNKANDYTTEYSASVKGRFTISRDNSQSILYLQMNTLRAEDSATYYCARESPGNPFAYWGQGTLVTVSA VL: DIVMTQSPSSLTVTAGEKVTMTCKSSQSLLNSGTQKNFLTWYQQKPGQPPKLLIYWASTRESGVPDRFTGSGSGTDFTLTISSVQAEDLAVYFCQNDYIYPLTFGAGTKLELK: 20000
- Ab2: mouse hybridoma anti-B7-H3 monoclonal antibody, mouse IgG1/k (antibody, V domains shown) VH: QVQLQQPGAELVKPGASVKLSCKASGYTFTSYWMHWVKQRPGQGLEWIGMIHPDSGTTNYNEKFRSKATLTVDKSSSTAYMQLSSLTSEDSAVYYCAVYYGSTYWYFDVWGTGTTVTVSS VL: DVVMTQTPLSLPVSLGDQAYISCRSSQSLVHINGNTYLHWYRQKPGQSPKLLIYKVSNRFSGVPDRFSGSGSGTDFTLKISRVEAEDLGVYFCSQSTHFPFTFGSGTKLEIK: 120000
